Data provenance is ChEMBL document CHEMBL1201862.

Test system: K562
Assay: NCI tumour cell line growth inhibition, 48 h
Active and inactive are the calls of the source. Cut-off read from the data, not from the text of the source: active = GI50 up to about 1.1 µM and inactive = higher.
Hi! Could you answer with just one of these? true = active, false = inactive

Incoming: Just curious, what result did "O=C(NCCc1ccc(F)cc1)c1cc(/C=C/c2cc(O)ccc2O)ccc1O" get here?
Outgoing: false

Incoming: Just curious, what result did "c1ccc2c(c1)[n-]n1c3ccc4nonc4c3n[n+]21" get here?
Outgoing: false

Incoming: Just curious, what result did N#CCCC1C(C#N)C2CC1C1C3C=CC(C3)C21 (configuration not stated) get here?
Outgoing: false

Incoming: Just curious, what result did COc1cccc2c1OC(c1cccc3ccccc13)C([N+](=O)[O-])=C2 (configuration not stated) get here?
Outgoing: true

Incoming: Just curious, what result did "C/C(N)=[N+](/C)[O-]" get here?
Outgoing: false

Incoming: Just curious, what result did "c1ccc2c(c1)CCN(C1=NCCO1)C2" get here?
Outgoing: false

Incoming: Just curious, what result did COc1ccc(C2c3c(-c4ccccc4)nn(-c4ccccc4)c3Oc3ncn(N)c(=N)c32)cc1OC (configuration not stated) get here?
Outgoing: false

Incoming: Just curious, what result did O=C(O)c1ccc(C2C(=O)N[C@@H]3CCC[C@H]23)cc1 (some centres not stated) get here?
Outgoing: false

Incoming: Just curious, what result did "COc1ccc(Nc2nc(N)c(C(=O)c3ccc(Cl)cc3)s2)cc1" get here?
Outgoing: true

Incoming: Just curious, what result did "O=c1cnn(CCOCP(=O)(O)O)c(=O)[nH]1" get here?
Outgoing: false

Incoming: Just curious, what result did "CN1C(=O)C(C)(C)NS1(=O)=O" get here?
Outgoing: false

Incoming: Just curious, what result did "CCOC(=O)c1c(N2CCCC2)nsc1Nc1ccccc1" get here?
Outgoing: false
